A collection of compounds and their measured log10 of MIC
System: Salmonella typhi
assay_procedure: Antimicrobial activity against Salmonella typhi ATCC 9484 by twofold broth dilution method
Format: functional, Salmonella enterica subsp. enterica serovar Typhi
condition_parameters: Salmonella enterica
test_readout: log10 of MIC (log10 of the value in µg/mL)

Cc1cc(=O)oc2cc(OCCCCCn3cncn3)cc(OCCCCCn3cncn3)c12 : 0.60
Cc1cc(=O)oc2cc(OCc3ccc(Cn4cncn4)cc3)cc(OCc3ccc(Cn4cncn4)cc3)c12.Cl : 1.20
Cc1cc(=O)oc2cc(OCc3ccc(Cn4cncn4)cc3)cc(OCc3ccc(Cn4cncn4)cc3)c12 : 1.51
Cc1cc(=O)oc2cc(OCCCCCCBr)cc(OCCCCCCBr)c12 : 2.71
Cc1cc(=O)oc2cc(OCCCCOc3ccc4c(C)cc(=O)oc4c3)ccc12 : 2.41
O=C(N[C@H](CO)[C@H](O)c1ccc([N+](=O)[O-])cc1)C(Cl)Cl : 0.60

====

Tested on: Micrococcus luteus
assay_procedure: Antimicrobial activity against Micrococcus luteus ATCC 4698 by twofold broth dilution method
Assay type: functional
test_readout: MIC (µg/mL)

Cc1cc(=O)oc2cc(OCCCCOc3ccc4c(C)cc(=O)oc4c3)ccc12 : 128
Cc1cc(=O)oc2cc(OCCCCCCOc3ccc4c(C)cc(=O)oc4c3)ccc12 : 128
Cc1cc(=O)oc2cc(OCc3ccc(Cn4cncn4)cc3)ccc12.Cl : 8
Cc1cc(=O)oc2cc(OCCCCCCn3cncn3)cc(OCCCCCCn3cncn3)c12 : 8
Cc1cc(=O)oc2cc(OCCCCCBr)cc(OCCCCCBr)c12 : 128
Cc1cc(=O)oc2cc(OCCCCCOc3ccc4c(C)cc(=O)oc4c3)ccc12 : 128
Cc1cc(=O)oc2cc(OCc3ccc(CBr)cc3)ccc12 : 256
Cc1cc(=O)oc2cc(OCCCCCCBr)cc(OCCCCCCBr)c12 : 128
Cc1cc(=O)oc2cc(OCCCCBr)cc(OCCCCBr)c12 : 256
Cc1cc(=O)oc2cc(OCCCCn3cncn3)ccc12.Cl : 2
Cc1cc(=O)oc2cc(OCCCCCCBr)ccc12 : 64
Cc1cc(=O)oc2cc(OCc3ccc(Cn4cncn4)cc3)cc(OCc3ccc(Cn4cncn4)cc3)c12.Cl : 16
Cc1cc(=O)oc2cc(OCCCCn3cncn3)cc(OCCCCn3cncn3)c12.Cl : 1
Cc1cc(=O)oc2cc(OCc3ccc(CBr)cc3)cc(OCc3ccc(CBr)cc3)c12 : 256
Cc1cc(=O)oc2cc(OCc3ccc(Cn4cncn4)cc3)cc(OCc3ccc(Cn4cncn4)cc3)c12 : 64
Cc1cc(=O)oc2cc(OCCCCBr)ccc12 : 128
Cc1cc(=O)oc2cc(OCCCCCBr)ccc12 : 256
Cc1cc(=O)oc2cc(OCCCCCn3cncn3)ccc12 : 8
Cc1cc(=O)oc2cc(OCc3ccc(Cn4cncn4)cc3)ccc12 : 32

====

// reported MIC for each item listed
Tested on: Micrococcus luteus
assay_procedure: Antimicrobial activity against Micrococcus luteus ATCC 4698 by twofold broth dilution method
Assay type: functional
test_readout: MIC (µg/mL)

Cc1cc(=O)oc2cc(OCCCCCCn3cncn3)ccc12 : 8
Cc1cc(=O)oc2cc(O)cc(O)c12 [5,7-DIHYDROXY-4-METHYLCOUMARIN] : 64
Cc1cc(=O)oc2cc(O)ccc12 : 32
Cc1cc(=O)oc2cc(OCCCCn3cncn3)ccc12 : 4
Cc1cc(=O)oc2cc(OCCCCCn3cncn3)cc(OCCCCCn3cncn3)c12 : 4
Cc1cc(=O)oc2cc(OCCCCn3cncn3)cc(OCCCCn3cncn3)c12 : 1

====

System: Staphylococcus aureus
assay_procedure: Antimicrobial activity against Staphylococcus aureus ATCC 25923 by twofold broth dilution method
Format: functional
test_readout: log10(MIC) (log10 of the value in mg/L)

O=C(N[C@H](CO)[C@H](O)c1ccc([N+](=O)[O-])cc1)C(Cl)Cl [CHLORAMPHENICOL] : 0.60
Cc1cc(=O)oc2cc(OCc3ccc(CBr)cc3)cc(OCc3ccc(CBr)cc3)c12 : 2.41
Cc1cc(=O)oc2cc(OCc3ccc(Cn4cncn4)cc3)ccc12.Cl : 0.90
Cc1cc(=O)oc2cc(OCCCCn3cncn3)ccc12 : 0.30
Cc1cc(=O)oc2cc(OCc3ccc(Cn4cncn4)cc3)ccc12 : 1.51
Cc1cc(=O)oc2cc(OCCCCOc3ccc4c(C)cc(=O)oc4c3)ccc12 : 2.11
Cc1cc(=O)oc2cc(OCCCCCCn3cncn3)cc(OCCCCCCn3cncn3)c12 : 0.90
Cc1cc(=O)oc2cc(O)cc(O)c12 [5,7-DIHYDROXY-4-METHYLCOUMARIN] : 1.51
Cc1cc(=O)oc2cc(OCCCCBr)ccc12 : 2.11
Cc1cc(=O)oc2cc(O)ccc12 [HYMECROMONE] : 1.51
Cc1cc(=O)oc2cc(OCCCCn3cncn3)cc(OCCCCn3cncn3)c12.Cl : 0.00
Cc1cc(=O)oc2cc(OCCCCBr)cc(OCCCCBr)c12 : 2.41
Cc1cc(=O)oc2cc(OCCCCCCn3cncn3)ccc12 : 0.90
Cc1cc(=O)oc2cc(OCc3ccc(CBr)cc3)ccc12 : 2.41
Cc1cc(=O)oc2cc(OCCCCCCBr)ccc12 : 1.81
Cc1cc(=O)oc2cc(OCCCCCBr)cc(OCCCCCBr)c12 : 2.11
CCn1cc(C(=O)O)c(=O)c2cc(F)c(N3CCNCC3)nc21 [ENOXACIN] : 0.00
Cc1cc(=O)oc2cc(OCCCCCOc3ccc4c(C)cc(=O)oc4c3)ccc12 : 2.11
Cc1cc(=O)oc2cc(OCCCCCn3cncn3)ccc12 : 0.60
Cc1cc(=O)oc2cc(OCCCCCCOc3ccc4c(C)cc(=O)oc4c3)ccc12 : 2.41
Cc1cc(=O)oc2cc(OCc3ccc(Cn4cncn4)cc3)cc(OCc3ccc(Cn4cncn4)cc3)c12.Cl : 0.90
Cc1cc(=O)oc2cc(OCCCCCCBr)cc(OCCCCCCBr)c12 : 2.41

====

log10 MIC overview
Tested on: Salmonella typhi
assay_procedure: Antimicrobial activity against Salmonella typhi ATCC 9484 by twofold broth dilution method
Assay type: functional, Salmonella enterica subsp. enterica serovar Typhi
condition_parameters: Salmonella enterica
test_readout: log10 MIC (log10 of the value in µg/mL)

CCn1cc(C(=O)O)c(=O)c2cc(F)c(N3CCNCC3)nc21 [ENOXACIN] : 0.30
Cc1cc(=O)oc2cc(OCc3ccc(CBr)cc3)cc(OCc3ccc(CBr)cc3)c12 : 2.41
Cc1cc(=O)oc2cc(OCCCCBr)cc(OCCCCBr)c12 : 2.41
Cc1cc(=O)oc2cc(O)cc(O)c12 [5,7-DIHYDROXY-4-METHYLCOUMARIN] : 2.41
Cc1cc(=O)oc2cc(O)ccc12 [HYMECROMONE] : 2.11
Cc1cc(=O)oc2cc(OCCCCn3cncn3)cc(OCCCCn3cncn3)c12.Cl : 0.00
Cc1cc(=O)oc2cc(OCCCCCCn3cncn3)cc(OCCCCCCn3cncn3)c12 : 1.20
Cc1cc(=O)oc2cc(OCCCCCCOc3ccc4c(C)cc(=O)oc4c3)ccc12 : 2.71
Cc1cc(=O)oc2cc(OCc3ccc(Cn4cncn4)cc3)ccc12 : 1.81
Cc1cc(=O)oc2cc(OCCCCn3cncn3)ccc12.Cl : 1.20

====

In this section we review reported MIC values for a set of compounds.
System: Aspergillus fumigatus
assay_procedure: Antifungal activity against Aspergillus fumigatus ATCC 96918 by twofold broth dilution method
Format: functional
test_readout: MIC

Cc1cc(=O)oc2cc(OCCCCn3cncn3)ccc12 : 16 µg/mL
Cc1cc(=O)oc2cc(OCCCCCCn3cncn3)cc(OCCCCCCn3cncn3)c12 : 32 µg/mL
Cc1cc(=O)oc2cc(OCCCCCCBr)ccc12 : 512 µg/mL
Cc1cc(=O)oc2cc(OCCCCOc3ccc4c(C)cc(=O)oc4c3)ccc12 : 512 µg/mL
Cc1cc(=O)oc2cc(OCc3ccc(COc4ccc5c(C)cc(=O)oc5c4)cc3)ccc12 : > 512 µg/mL
Cc1cc(=O)oc2cc(OCCCCn3cncn3)ccc12.Cl : 8 µg/mL

====

# MIC per record follows
Test system: Staphylococcus aureus
assay_procedure: Antimicrobial activity against Staphylococcus aureus ATCC 25923 by twofold broth dilution method
Type: functional
test_readout: MIC (µg/mL)

Cc1cc(=O)oc2cc(OCCCCn3cncn3)cc(OCCCCn3cncn3)c12 : 1
Cc1cc(=O)oc2cc(OCc3ccc(Cn4cncn4)cc3)cc(OCc3ccc(Cn4cncn4)cc3)c12 : 32
Cc1cc(=O)oc2cc(OCCCCn3cncn3)ccc12.Cl : 2
Cc1cc(=O)oc2cc(OCCCCCn3cncn3)cc(OCCCCCn3cncn3)c12 : 2
Cc1cc(=O)oc2cc(OCCCCCBr)ccc12 : 128
